# ASSAY PROCEDURE: Ratio of IC50 for CHO cells to IC50 for Plasmodium falciparum
# Format: functional
# if measured Ratio IC50 < 10: y  # else: n

Worked examples follow.
Request: is_below(Ratio IC50, 10) for "[Cl-].c1ccc(COc2ccc(-c3nn(-c4ccc(OCc5ccccc5)cc4)[n+](-c4ccccc4)n3)cc2)cc1" ?
Response: y

Request: Bench note: check whether "COc1cc(-c2nn(-c3ccccc3)[n+](-c3ccc(Cl)cc3)n2)ccc1OCc1ccccc1.[Cl-]" shows Ratio IC50 below 10
Response: y

Request: Is it true that Ratio IC50 reported for "Clc1ccc(-[n+]2nc(-c3ccccc3)nn2-c2ccccc2)cc1.[Cl-]" is less than 10?
Response: n

Request: # check: Ratio IC50 < 10 for "[Cl-].c1ccc(COc2ccc(-n3nc(-c4ccc(-c5ccccc5)cc4)n[n+]3-c3ccccc3)cc2)cc1"
Response: y

Request: hey, is Ratio IC50 for "COc1cc(-c2nn(-c3ccccc3)[n+](-c3cccc(Cl)c3)n2)ccc1OCc1ccccc1.[Cl-]" lower than 10 or not?
Response: n

***
Request: Ratio IC50 under 10? Item: "O=[N+]([O-])c1ccc(-[n+]2nc(-c3ccc(Br)cc3)nn2-c2ccccc2)cc1.[Cl-]"
Response: y

Request: Record "COc1cc(-c2nn(-c3ccccc3)[n+](-c3ccccc3F)n2)ccc1OCc1ccccc1.[Cl-]" : is its Ratio IC50 strictly below 10?
Response: y

Request: Ratio IC50 strictly < 10 for this compound? "COc1ccc(-n2nc(-c3ccc(OCc4ccccc4)cc3)n[n+]2-c2cccc(Cl)c2)cc1.[Cl-]"
Response: n

---

Reported Ratio IC50 values are given for each entry in this list.
# ASSAY PROCEDURE: Ratio of IC50 for CHO cells to IC50 for Plasmodium falciparum
# Format: functional
// keep it numeric: no unit symbol after the value

Consider the worked cases shown below.
Request: So what's the measured Ratio IC50 for this one? "Clc1cccc(-n2nc(-c3ccccc3)n[n+]2-c2cccc(Cl)c2)c1.[Cl-]"
Response: 72

Request: Suppose we examine the molecule "Clc1cccc(-c2nn(-c3ccccc3)[n+](-c3ccccc3)n2)c1.[Cl-]" ; what Ratio IC50 value has been reported?
Response: 93.5

Request: Give its Ratio IC50 value. Item: [Cl-].[Cl-].c1ccc(-c2nn(-c3ccccc3)[n+](-c3ccc(-c4ccc(-[n+]5nc(-c6ccccc6)nn5-c5ccccc5)cc4)cc3)n2)cc1 [NEOTETRAZOLIUM CHLORIDE]
Response: 31.4

Now for a further molecule.
Request: Ratio IC50 for "Fc1ccc(-[n+]2nc(-c3ccc(-c4ccccc4)cc3)nn2-c2ccccc2)cc1.[Cl-]" ?
Response: 5.1

---

# ASSAY PROCEDURE: Toxicity in CHO cells
# Assay type: cell-based, Cricetulus griseus
# CONDITION SUMMARY: Chinese hamster (Cricetulus griseus), CHO cells
pIC50: −log10 of the molar value.
Quick rule: pIC50 of at least 5 means MET, below that means NOT MET.

Request: Quick check, pIC50 >= 5? "Clc1cccc(-c2nn(-c3ccccc3)[n+](-c3ccccc3)n2)c1.[Cl-]"
Response: NOT MET

Request: Evaluate "COc1ccc(-[n+]2nc(-c3ccc(-c4ccccc4)cc3)nn2-c2ccccc2)cc1.[Cl-]" : pIC50 at minimum 5?
Response: NOT MET

Request: Does pIC50 meet or surpass 5 for "Fc1cccc(-[n+]2nc(-c3ccc(-c4ccccc4)cc3)nn2-c2ccccc2)c1.[Cl-]" ?
Response: MET

Request: Evaluate "O=[N+]([O-])c1ccc(-[n+]2nc(-c3ccccc3)nn2-c2ccccc2)cc1.[Cl-]" : pIC50 at minimum 5?
Response: NOT MET

Request: Please check the record "O=[N+]([O-])c1ccc(-[n+]2nc(-c3ccc(Br)cc3)nn2-c2ccccc2)cc1.[Cl-]" and state if its pIC50 is at or above 5.
Response: MET

---

IC50 reference
# ASSAY PROCEDURE: Toxicity in CHO cells
# Assay type: cell-based, Cricetulus griseus
# CONDITION SUMMARY: Chinese hamster (Cricetulus griseus), CHO cells
Respond with the bare value in µM.

Request: # lookup: IC50 of "Clc1cccc(-[n+]2nc(-c3ccccc3)nn2-c2ccc(OCc3ccccc3)cc2)c1.[Cl-]"
Response: 14

Request: Which IC50 is listed for "Clc1cccc(-n2nc(-c3ccccc3)n[n+]2-c2cccc(Cl)c2)c1.[Cl-]" ?
Response: 36

Request: I would be grateful if you could share the reported IC50 for "COc1cc(-c2nn(-c3ccccc3)[n+](-c3ccc([N+](=O)[O-])cc3)n2)cc(OC)c1OC(C)=O.[Cl-]" .
Response: 19

Request: // lookup IC50 for "Clc1ccc(-[n+]2nc(-c3ccc(OCc4ccccc4)cc3)nn2-c2ccccc2)cc1.[Cl-]"
Response: 4.6

Request: So what does the record say about IC50 for "Clc1cccc(-n2nc(-c3ccc(OCc4ccccc4)cc3)n[n+]2-c2cccc(Cl)c2)c1.[Cl-]" ?
Response: 21

Request: Using the record for "O=[N+]([O-])c1ccc(-c2nn(-c3ccccc3)[n+](-c3ccccc3)n2)cc1.[Cl-]" , report its IC50.
Response: 31

--- query ---
Request: I have this compound here, "[Cl-].c1ccc(-n2nc(C3CCCCC3)n[n+]2-c2ccccc2)cc1" , and I need its recorded IC50.
Response: 25

---

# ASSAY PROCEDURE: Ratio of IC50 for CHO cells to IC50 for Plasmodium falciparum
# Assay type: functional
# Ratio IC50 listing for each entry below
Answer using only a numeral; do not append any unit.

Sample answers from the record:
Request: Endpoint output: Ratio IC50 of "Brc1cccc(-[n+]2nc(-c3ccccc3)nn2-c2ccccc2)c1.[Cl-]" . Value?
Response: 10.7

Request: If you can, please state the reported Ratio IC50 value of "[Cl-].c1ccc(COc2ccc(-c3nn(-c4ccccc4)[n+](-c4ccccc4)n3)cc2)cc1" .
Response: 40.8

Request: Sample "Clc1cccc(-n2nc(-c3ccc(OCc4ccccc4)cc3)n[n+]2-c2cccc(Cl)c2)c1.[Cl-]" — what was its Ratio IC50?
Response: 16.2

Request: // returns reported Ratio IC50 for input "Fc1cccc(-[n+]2nc(-c3ccc(OCc4ccccc4)cc3)nn2-c2ccccc2)c1.[Cl-]"
Response: 10.2

---
Request: Could you tell me which Ratio IC50 is on file for "Clc1cccc(-[n+]2nc(-c3ccc(-c4ccccc4)cc3)nn2-c2ccccc2)c1.[Cl-]" ?
Response: 87

Request: What value of Ratio IC50 has been recorded for this entry: "Brc1cccc(-[n+]2nc(-c3ccc(OCc4ccccc4)cc3)nn2-c2ccccc2)c1.[Cl-]"
Response: 20.3

Request: For the molecule shown here, "[Cl-].c1ccc(-n2nc(-c3cccc4ccccc34)n[n+]2-c2ccccc2)cc1" , give the reported Ratio IC50.
Response: 6.9

Request: Requested read-out: Ratio IC50. Entry: "Fc1ccccc1-[n+]1nc(-c2ccc(OCc3ccccc3)cc2)nn1-c1ccccc1.[Cl-]"
Response: 57.1

Request: For the molecule shown here, "O=[N+]([O-])c1ccc(-c2nn(-c3ccccc3)[n+](-c3ccccc3)n2)cc1.[Cl-]" , give the reported Ratio IC50.
Response: 2.2

---

# ASSAY PROCEDURE: Ratio of IC50 for CHO cells to IC50 for Plasmodium falciparum
# Type: functional
PROPERTY LABEL: Ratio IC50
Answer with a bare number; do not write a unit.

Sample records with Ratio IC50:
Request: # input compound: "COc1ccc(-n2nc(-c3ccc(OCc4ccccc4)cc3)n[n+]2-c2ccccc2)cc1.[Cl-]" ; wanted: its Ratio IC50
Response: 28.1

Request: # query: Ratio IC50 of entry "[Cl-].c1ccc(COc2ccc(-n3nc(-c4ccccc4)n[n+]3-c3ccccc3)cc2)cc1"
Response: 185

Request: Which measured Ratio IC50 value corresponds to "Fc1cccc(-[n+]2nc(-c3ccccc3)nn2-c2ccccc2)c1.[Cl-]" ?
Response: 16.4

New cases:
Request: Requested field: Ratio IC50. Item: "CCCCCCCCCCCOc1ccc(-c2nn(-c3ccccc3)[n+](-c3ccccc3)n2)cc1.[Cl-]"
Response: 0.1

Request: Ratio IC50 lookup needed for "CCCCCCCCCCCOc1cccc(-c2nn(-c3ccccc3)[n+](-c3ccccc3)n2)c1.[Cl-]" , thanks.
Response: 2

Request: Field request: Ratio IC50 | item: "Fc1ccc(-[n+]2nc(-c3cccc4ccccc34)nn2-c2ccccc2)cc1.[Cl-]"
Response: 38.6

Request: State the recorded Ratio IC50 for this entry: "Clc1cccc(-[n+]2nc(-c3ccccc3)nn2-c2ccc(OCc3ccccc3)cc2)c1.[Cl-]"
Response: 140

---

# ASSAY PROCEDURE: Ratio of IC50 for CHO cells to IC50 for Plasmodium falciparum
# Type: functional
Label 1.0 when Ratio IC50 is strictly below 20; otherwise label 0.0.

Some solved entries appear below for comparison.
Request: Here's an entry: "Clc1ccc(-[n+]2nc(-c3ccc(-c4ccccc4)cc3)nn2-c2ccccc2)cc1.[Cl-]" . Is its Ratio IC50 below 20?
Response: 0.0

Request: Item "CCCCCCc1nn(-c2ccccc2)[n+](-c2ccccc2)n1.[Br-]" : Ratio IC50 beneath 20, strictly?
Response: 1.0

Request: Check if Ratio IC50 falls below 20 for "COc1ccc(-n2nc(-c3ccc(-c4ccccc4)cc3)n[n+]2-c2ccc(Cl)cc2)cc1.[Cl-]" .
Response: 0.0

Request: Hello, I'm reviewing records and need to know if Ratio IC50 of "COc1ccc(-n2nc(-c3ccc(-c4ccccc4)cc3)n[n+]2-c2ccc(F)cc2)cc1.[Cl-]" is below 20. Could you check?
Response: 1.0

Request: Strictly below 20: is that where Ratio IC50 of "COc1ccc(-[n+]2nc(-c3ccc(-c4ccccc4)cc3)nn2-c2ccccc2)cc1.[Cl-]" sits?
Response: 0.0

Request: Threshold test, Ratio IC50 < 20: "Fc1ccc(-[n+]2nc(-c3ccccc3)nn2-c2ccccc2)cc1.[Cl-]"
Response: 0.0

Request: Dear colleague, could you confirm whether Ratio IC50 of "COc1ccc(-n2nc(-c3ccccc3)n[n+]2-c2ccccc2)cc1.[Cl-]" falls below 20? Thanks.
Response: 1.0

Request: I'd appreciate it if you could check whether "[Cl-].c1ccc(-c2ccc(-c3nn(-c4ccccc4)[n+](-c4ccccc4)n3)cc2)cc1" has Ratio IC50 smaller than 20.
Response: 0.0

---
Request: Consider the molecule "[Cl-].c1ccc(-c2ccc(-n3nc(-c4cccc5ccccc45)n[n+]3-c3ccccc3)cc2)cc1" . Is its Ratio IC50 strictly less than 20?
Response: 1.0

Request: Consider the molecule "COc1ccc(-c2nn(-c3ccccc3)[n+](-c3ccc([N+](=O)[O-])cc3)n2)cc1.[Cl-]" . Is its Ratio IC50 strictly less than 20?
Response: 1.0

Request: Is the reported Ratio IC50 for "Clc1ccc(-[n+]2nc(-c3ccc(OCc4ccccc4)cc3)nn2-c2ccccc2)cc1.[Cl-]" strictly below 20?
Response: 1.0

Request: Input [Cl-].c1ccc(-c2nn(-c3ccccc3)[n+](-c3cccc4ccccc34)n2)cc1 [TETRAZOLIUM VIOLET] ; condition: Ratio IC50 strictly below 20. Does it hold?
Response: 0.0

Request: For "Fc1ccccc1-[n+]1nc(-c2ccc(-c3ccccc3)cc2)nn1-c1ccccc1.[Cl-]" , is the recorded Ratio IC50 below the cut-off of 20?
Response: 0.0

Request: Please determine if "Fc1ccccc1-[n+]1nc(-c2ccccc2)nn1-c1ccccc1.[Cl-]" is below 20 in terms of Ratio IC50.
Response: 0.0

Request: Does the reported Ratio IC50 of O=[N+]([O-])c1ccc(-n2nc(-c3ccccc3)n[n+]2-c2ccc(I)cc2)cc1.[Cl-] [IODONITROTETRAZOLIUM CHLORIDE] stay below 20?
Response: 1.0

Request: Identify whether the molecule "COc1cc(-c2nn(-c3ccccc3)[n+](-c3ccccc3)n2)ccc1OCc1ccccc1.[Cl-]" records Ratio IC50 below 20.
Response: 1.0

Request: Problem: For the molecule "COc1cc(-c2nn(-c3ccccc3)[n+](-c3cccc(F)c3)n2)ccc1OCc1ccccc1.[Cl-]" , is Ratio IC50 under 20?
Response: 1.0

Request: Field: below-cutoff. Rule: recorded Ratio IC50 strictly less than 20. Subject: "Fc1cccc(-[n+]2nc(-c3ccc(-c4ccccc4)cc3)nn2-c2ccccc2)c1.[Cl-]"
Response: 1.0
